assay: Lipophilicity, log D of the compound at pH 7.4 by chromatographic method; type: physicochemical; settings: buffer

structure	chromatographic logD
COc1cc(-c2cnc3cccc(-c4cc(F)c(CN5CCS(=O)(=O)CC5)c(F)c4)c3n2)ccc1OCCCN1CCOCC1	6
CN[C@@H](C)C(=O)N[C@H](C(=O)N1C[C@@H](NC(=O)COCCOCCOCCOCCn2cc(Nc3ncc(Cl)c(NCc4cc(F)ccc4F)n3)cn2)C[C@H]1C(=O)N[C@@H]1CCCc2ccccc21)C1CCCCC1	5 to 8
CN[C@@H](C)C(=O)N[C@H](C(=O)N1C[C@@H](NC(=O)CCCCCCCCCN2CCN(CCCOc3ccc(-c4cnc5cccc(-c6cc(F)c(CN7CCS(=O)(=O)CC7)c(F)c6)c5n4)cc3OC)CC2)C[C@H]1C(=O)N[C@@H]1CCCc2ccccc21)C1CCCCC1	5 to 8
CN[C@@H](C)C(=O)N[C@H](C(=O)N1C[C@@H](NC(=O)COCCOCCOCCOCCOc2cc(F)cc(CNc3nc(Nc4cnn(C)c4)ncc3Cl)c2F)C[C@H]1C(=O)N[C@@H]1CCCc2ccccc21)C1CCCCC1	5 to 8
CN[C@@H](C)C(=O)N[C@H](C(=O)N1C[C@@H](NC(=O)COCCOCCOCCOCCN2CCN(CCCOc3ccc(-c4cnc5cccc(-c6cc(F)c(CN7CCS(=O)(=O)CC7)c(F)c6)c5n4)cc3OC)CC2)C[C@H]1C(=O)N[C@@H]1CCCc2ccccc21)C1CCCCC1	5 to 8
OCCn1cc(Nc2ncc(Cl)c(NCc3cc(F)ccc3F)n2)cn1	3.5
CN[C@@H](C)C(=O)N[C@H](C(=O)N1C[C@@H](NC(=O)CCCCCCCCCOc2cc(F)cc(CNc3nc(Nc4cnn(C)c4)ncc3Cl)c2F)C[C@H]1C(=O)N[C@@H]1CCCc2ccccc21)C1CCCCC1	5 to 8
CN[C@@H](C)C(=O)N[C@H](C(=O)N1C[C@@H](NC(=O)CCCCCCCCCn2cc(Nc3ncc(Cl)c(NCc4cc(F)ccc4F)n3)cn2)C[C@H]1C(=O)N[C@@H]1CCCc2ccccc21)C1CCCCC1	5 to 8
